System: HIV-1 IIIB strain
ASSAY SUMMARY: MT-4 HIV Wild Type Virus Infection Assay (IIIB Virus)
Format: cell-based
CONDITIONS USED: Human immunodeficiency virus 1, IIIB, MT4, 120 h, MT-4 cells acutely infected with HIV-1 IIIB, 5 day incubation, Cell-titer glo
pEC50: −log10 of the molar value.
Entry flag: t if pEC50 reaches 7; f if it does not.

# MOLECULE, TARGET SYSTEM, CATEGORY LABEL
records = [
    ("COC(=O)N[C@H](C(=O)N[C@@H](Cc1ccc(C#Cc2cnc(N3CC4CCC(C3)N4C3COC3)nc2)cc1)[C@H](CN(Cc1c(F)cc(-c2ccn(C(F)F)n2)cc1F)NC(=O)[C@@H](NC(=O)OC)C(C)(C)C(F)(F)F)OC(=O)OCOC(=O)CC(C)(C)c1c(CC(=O)NCC(=O)NS(C)(=O)=O)cc(C)cc1OP(=O)(O)O)C(C)(C)C(F)(F)F [Example 22]", "HIV-1 IIIB strain", "t"),
    ("COC(=O)N[C@H](C(=O)N[C@@H](Cc1ccc(C#Cc2cnc(N3CC4CCC(C3)N4C3COC3)nc2)cc1)[C@H](CN(Cc1c(F)cc(-c2ccn(C(F)F)n2)cc1F)NC(=O)[C@@H](NC(=O)OC)C(C)(C)C(F)(F)F)OC(=O)CC(C)(C)c1c(CC(=O)N[C@@H](CC(=O)O)C(=O)O)cc(C)cc1OP(=O)(O)O)C(C)(C)C(F)(F)F [Example 23]", "HIV-1 IIIB strain", "f"),
    ("COC(=O)N[C@H](C(=O)N[C@@H](Cc1ccc(C#Cc2cnc(N3CC4CCC(C3)N4C3COC3)nc2)cc1)[C@H](CN(Cc1c(F)cc(-c2ccn(C(F)F)n2)cc1F)NC(=O)[C@@H](NC(=O)OC)C(C)(C)C(F)(F)F)OC(=O)OCOC(=O)CC(C)(C)c1c(CC(=O)N[C@@H](CCC(N)=O)C(=O)O)cc(C)cc1OP(=O)(O)O)C(C)(C)C(F)(F)F [Example 87]", "HIV-1 IIIB strain", "t"),
    ("COC(=O)N[C@H](C(=O)N[C@@H](Cc1ccc(C#Cc2cnc(N3CC4CCC(C3)N4C3COC3)nc2)cc1)[C@H](CN(Cc1c(F)cc(-c2ccn(C(F)F)n2)cc1F)NC(=O)[C@@H](NC(=O)OC)C(C)(C)C(F)(F)F)OC(=O)CC(C)(C)c1c(CC(=O)NCc2ccc(S(N)(=O)=O)cc2)cc(C)cc1OP(=O)(O)O)C(C)(C)C(F)(F)F [Example 62]", "HIV-1 IIIB strain", "f"),
    ("COC(=O)N[C@H](C(=O)N[C@@H](Cc1ccc(C#Cc2cnc(N3CC4CCC(C3)N4C3COC3)nc2)cc1)[C@H](CN(Cc1c(F)cc(-c2ccn(C(F)F)n2)cc1F)NC(=O)[C@@H](NC(=O)OC)C(C)(C)C(F)(F)F)OC(=O)CC(C)(C)c1c(CC(=O)NCC(=O)NS(C)(=O)=O)cc(C)cc1OP(=O)(O)O)C(C)(C)C(F)(F)F [Example 27]", "HIV-1 IIIB strain", "f"),
]

* * *

Recorded solubility at 2 h by entry
ASSAY SUMMARY: Solubility in FaSSIF
CONDITIONS USED: 23 °C, pH 6.5, fassif, thermodynamic from solid

# MOLECULE, solubility at 2 h, µg/mL
data = [
    ("COC(=O)N[C@H](C(=O)N[C@@H](Cc1ccc(C#Cc2cnc(N3CC4CCC(C3)N4C3COC3)nc2)cc1)[C@H](CN(Cc1c(F)cc(-c2ccn(C(F)F)n2)cc1F)NC(=O)[C@@H](NC(=O)OC)C(C)(C)C(F)(F)F)OC(=O)CC(C)(C)c1c(CC(=O)NC2(C(=O)O)CCOCC2)cc(C)cc1OP(=O)(O)O)C(C)(C)C(F)(F)F [Example 31]", 3510),
    ("COC(=O)N[C@H](C(=O)N[C@@H](Cc1ccc(C#Cc2cnc(N3CC4CCC(C3)N4C3COC3)nc2)cc1)[C@H](CN(Cc1c(F)cc(-c2ccn(C(F)F)n2)cc1F)NC(=O)[C@@H](NC(=O)OC)C(C)(C)C(F)(F)F)OC(=O)CC(C)(C)c1c(CC(=O)NC(CP(=O)(O)O)C(=O)O)cc(C)cc1OP(=O)(O)O)C(C)(C)C(F)(F)F (some centres unmarked) [Example 34]", 4810),
]

* * *

Test system: HIV-1 IIIB strain
ASSAY SUMMARY: MT-4 HIV Wild Type Virus Infection Assay (IIIB Virus)
Assay type: cell-based
CONDITIONS USED: Human immunodeficiency virus 1, IIIB, MT4, 120 h, MT-4 cells acutely infected with HIV-1 IIIB, 5 day incubation, Cell-titer glo
This listing pairs compounds with measured EC50.

# COMPOUND, TARGET SYSTEM, EC50 / nM
measured = [
    ("COC(=O)N[C@H](C(=O)N[C@@H](Cc1ccc(C#Cc2cnc(N3CC4CCC(C3)N4C3COC3)nc2)cc1)[C@H](CN(Cc1c(F)cc(-c2ccn(C(F)F)n2)cc1F)NC(=O)[C@@H](NC(=O)OC)C(C)(C)C(F)(F)F)OC(=O)CC(C)(C)c1c(CC(=O)N[C@]2(C(=O)O)CCOC2)cc(C)cc1OP(=O)(O)O)C(C)(C)C(F)(F)F [Example 30]", "HIV-1 IIIB strain", 197),
    ("COC(=O)N[C@H](C(=O)N[C@@H](Cc1ccc(C#Cc2cnc(N3CC4CCC(C3)N4C3COC3)nc2)cc1)[C@H](CN(Cc1c(F)cc(-c2ccn(C(F)F)n2)cc1F)NC(=O)[C@@H](NC(=O)OC)C(C)(C)C(F)(F)F)OC(=O)CC(C)(C)c1c(CC(=O)N2[C@H](C(=O)O)C[C@@H]3CCCC[C@@H]32)cc(C)cc1OP(=O)(O)O)C(C)(C)C(F)(F)F [Example 55]", "HIV-1 IIIB strain", 3480),
    ("COC(=O)N[C@H](C(=O)N[C@@H](Cc1ccc(C#Cc2cnc(N3CC4CCC(C3)N4C3COC3)nc2)cc1)[C@H](CN(Cc1c(F)cc(-c2ccn(C(F)F)n2)cc1F)NC(=O)[C@@H](NC(=O)OC)C(C)(C)C(F)(F)F)OC(=O)CC(C)(C)c1c(CC(=O)NCc2ccc(C(=O)O)cc2)cc(C)cc1OP(=O)(O)O)C(C)(C)C(F)(F)F [Example 49]", "HIV-1 IIIB strain", 224),
]

* * *

Tested on: HIV-1 IIIB strain
ASSAY SUMMARY: MT-4 HIV Wild Type Virus Infection Assay (IIIB Virus)
Assay type: cell-based
CONDITIONS USED: Human immunodeficiency virus 1, IIIB, MT4, 120 h, MT-4 cells acutely infected with HIV-1 IIIB, 5 day incubation, Cell-titer glo

# STRUCTURE AS SMILES, EC50 [nM]
measured = [
    ("COC(=O)N[C@H](C(=O)N[C@@H](Cc1ccc(C#Cc2cnc(N3CC4CCC(C3)N4C3COC3)nc2)cc1)[C@H](CN(Cc1c(F)cc(-c2ccn(C(F)F)n2)cc1F)NC(=O)[C@@H](NC(=O)OC)C(C)(C)C(F)(F)F)OC(=O)CC(C)(C)c1c(CC(=O)Nc2ccc(/C=C/C(=O)O)cc2)cc(C)cc1OP(=O)(O)O)C(C)(C)C(F)(F)F", 67.2),
    ("COC(=O)N[C@H](C(=O)N[C@@H](Cc1ccc(C#Cc2cnc(N3CC4CCC(C3)N4C3COC3)nc2)cc1)[C@H](CN(Cc1c(F)cc(-c2ccn(C(F)F)n2)cc1F)NC(=O)[C@@H](NC(=O)OC)C(C)(C)C(F)(F)F)OC(=O)CC(C)(C)c1c(CC(=O)NCc2cccc(C(=O)O)c2)cc(C)cc1OP(=O)(O)O)C(C)(C)C(F)(F)F", 113),
    ("COC(=O)N[C@H](C(=O)N[C@@H](Cc1ccc(C#Cc2cnc(N3CC4CCC(C3)N4C3COC3)nc2)cc1)[C@H](CN(Cc1c(F)cc(-c2ccn(C(F)F)n2)cc1F)NC(=O)[C@@H](NC(=O)OC)C(C)(C)C(F)(F)F)OC(=O)CC(C)(C)c1c(CC(=O)Nc2ccc(OC)c(S(=O)(=O)O)c2)cc(C)cc1OP(=O)(O)O)C(C)(C)C(F)(F)F", 317),
    ("COC(=O)N[C@H](C(=O)N[C@@H](Cc1ccc(C#Cc2cnc(N3CC4CCC(C3)N4C3COC3)nc2)cc1)[C@H](CN(Cc1c(F)cc(-c2ccn(C(F)F)n2)cc1F)NC(=O)[C@@H](NC(=O)OC)C(C)(C)C(F)(F)F)OC(=O)OCOC(=O)CC(C)(C)c1c(CC(=O)NCC(=O)O)cc(C)cc1OP(=O)(O)O)C(C)(C)C(F)(F)F", 3.9),
    ("COC(=O)N[C@H](C(=O)N[C@@H](Cc1ccc(C#Cc2cnc(N3CC4CCC(C3)N4C3COC3)nc2)cc1)[C@H](CN(Cc1c(F)cc(-c2ccn(C(F)F)n2)cc1F)NC(=O)[C@@H](NC(=O)OC)C(C)(C)C(F)(F)F)OC(=O)CC(C)(C)c1c(CC(=O)N2CC[C@@H]2C(=O)O)cc(C)cc1OP(=O)(O)O)C(C)(C)C(F)(F)F", 241),
    ("COC(=O)N[C@H](C(=O)N[C@@H](Cc1ccc(C#Cc2cnc(N3CC4CCC(C3)N4C3COC3)nc2)cc1)[C@H](CN(Cc1c(F)cc(-c2ccn(C(F)F)n2)cc1F)NC(=O)[C@@H](NC(=O)OC)C(C)(C)C(F)(F)F)OC(=O)OCOC(=O)CC(C)(C)c1c(CC(=O)N2CCN(S(N)(=O)=O)CC2)cc(C)cc1OP(=O)(O)O)C(C)(C)C(F)(F)F", 2.4),
    ("COC(=O)N[C@H](C(=O)N[C@@H](Cc1ccc(C#Cc2cnc(N3CC4CCC(C3)N4C3COC3)nc2)cc1)[C@H](CN(Cc1c(F)cc(-c2ccn(C(F)F)n2)cc1F)NC(=O)[C@@H](NC(=O)OC)C(C)(C)C(F)(F)F)OC(=O)CC(C)(C)c1c(CC(=O)N2C[C@@H](C(=O)O)C[C@H]2C(=O)O)cc(C)cc1OP(=O)(O)O)C(C)(C)C(F)(F)F", 418),
    ("COC(=O)N[C@H](C(=O)N[C@@H](Cc1ccc(C#Cc2cnc(N3CC4CCC(C3)N4C3COC3)nc2)cc1)[C@H](CN(Cc1c(F)cc(-c2ccn(C(F)F)n2)cc1F)NC(=O)[C@@H](NC(=O)OC)C(C)(C)C(F)(F)F)OC(=O)CC(C)(C)c1c(CC(=O)Nc2cc(C(=O)O)cc(S(C)(=O)=O)c2)cc(C)cc1OP(=O)(O)O)C(C)(C)C(F)(F)F", 90.5),
    ("COC(=O)N[C@H](C(=O)N[C@@H](Cc1ccc(C#Cc2cnc(N3CC4CCC(C3)N4C3COC3)nc2)cc1)[C@H](CN(Cc1c(F)cc(-c2ccn(C(F)F)n2)cc1F)NC(=O)[C@@H](NC(=O)OC)C(C)(C)C(F)(F)F)OC(=O)CC(C)(C)c1c(CC(=O)N[C@@H](CCS(=O)(=O)O)C(=O)O)cccc1OP(=O)(O)O)C(C)(C)C(F)(F)F", 40.5),
    ("COC(=O)N[C@H](C(=O)N[C@@H](Cc1ccc(C#Cc2cnc(N3CC4CCC(C3)N4C3COC3)nc2)cc1)[C@H](CN(Cc1c(F)cc(-c2ccn(C(F)F)n2)cc1F)NC(=O)[C@@H](NC(=O)OC)C(C)(C)C(F)(F)F)OC(=O)CC(C)(C)c1c(CC(=O)NC23CC4CC(C2)CC(C(=O)O)(C4)C3)cc(C)cc1OP(=O)(O)O)C(C)(C)C(F)(F)F", 444),
]
